Values from ChEMBL document CHEMBL3286221

Exercise: state measured IC50 for each of the compounds provided.
Test system: A549
Experiment: Cytotoxicity against human A549 cells after 48 hrs by sulforhodamine B assay
Assay type: functional, cell-based
Conditions: A549, 48 h
Include the unit after the number when you answer.

Example cases with answers are listed next.
The compound listed as "C=C1C(=O)O[C@@H]2[C@H]1CC[C@H](C)[C@]1(O)[C@@H](n3cc(COc4ccc(C(C)C)cc4C)nn3)CC(=O)[C@@]21C" has a reported IC50 of 21 µM

The compound listed as "C=C1C(=O)O[C@@H]2[C@H]1CC[C@H](C)[C@]1(O)[C@@H](n3cc(CNc4ccccc4OC)nn3)CC(=O)[C@@]21C" has a reported IC50 of 23 µM

The compound listed as "C=C1C(=O)O[C@@H]2[C@H]1CC[C@H](C)[C@]1(O)[C@@H](n3cc(CNc4ccc(F)cc4)nn3)CC(=O)[C@@]21C" has a reported IC50 of 100 µM

The compound listed as "C=C1C(=O)O[C@@H]2[C@H]1CC[C@H](C)[C@]1(O)[C@@H](n3cc(COc4ccc(Cl)cc4)nn3)CC(=O)[C@@]21C" has a reported IC50 of 4.1 µM

The compound listed as "C=C1C(=O)O[C@@H]2[C@H]1CC[C@H](C)[C@]1(O)[C@@H](n3cc(COc4ccc(Br)cc4)nn3)CC(=O)[C@@]21C" has a reported IC50 of 14 µM

Give IC50 for each listed item.
1. C=C1C(=O)O[C@@H]2[C@H]1CC[C@H](C)[C@]1(O)[C@@H](n3cc(CNc4ccccc4F)nn3)CC(=O)[C@@]21C
2. C=C1C(=O)O[C@@H]2[C@H]1CC[C@H](C)[C@]1(O)[C@@H](n3cc(CCc4ccccc4)nn3)CC(=O)[C@@]21C
3. C=C1C(=O)O[C@@H]2[C@H]1CC[C@H](C)[C@]1(O)[C@@H](n3cc(CNc4ccccc4C)nn3)CC(=O)[C@@]21C
4. C=C1C(=O)O[C@@H]2[C@H]1CC[C@H](C)[C@]1(O)[C@@H](n3cc(COc4ccc5ccccc5c4)nn3)CC(=O)[C@@]21C
5. C=C1C(=O)O[C@@H]2[C@H]1CC[C@H](C)[C@]1(O)[C@@H](n3cc(CNn4ccc5cc(Br)ccc54)nn3)CC(=O)[C@@]21C
6. C=C1C(=O)O[C@@H]2[C@H]1CC[C@H](C)[C@]1(O)[C@@H](n3cc(COc4ccccc4Br)nn3)CC(=O)[C@@]21C
7. C=C1C(=O)O[C@@H]2[C@H]1CC[C@H](C)[C@]1(O)[C@@H](n3cc(COc4ccccc4F)nn3)CC(=O)[C@@]21C

### Response
["34 µM", "5.8 µM", "23 µM", "9 µM", "100 µM", "8.8 µM", "6.3 µM"]

The compound listed as "C=C1C(=O)O[C@@H]2[C@H]1CC[C@H](C)[C@]1(O)[C@@H](n3cc(COc4ccc(C(F)(F)F)cc4)nn3)CC(=O)[C@@]21C" has a reported IC50 of 3.8 µM
